Assay method text: Rat pharmacokinetics
Type: in vivo
Assay conditions: male, Hans Wistar, whole blood; rat PO 10 mg/kg
# AUC per record follows
Return type: number; implicit unit µg·h/mL.

>>> recorded_measurement("Nc1nc2c(c(C(F)(F)F)n1)C(=O)N(CC1CCCC(C(F)(F)F)C1)C2 (centres unmarked) [DDD489]")
0.137

# input for lookup
Q. Which AUC reading was recorded for the molecule O=C(NCC1(O)CCCCC1)c1cc(=O)c2cc(O)ccc2o1 [DDD508] ?
A. 0.367

###

Assay method text: Dog pharmacokinetics
Format: in vivo
Assay conditions: male, beagle, whole blood, 3 mg/kg; dog, IV; read-out: Vdss
Endpoint name: Vd (L/kg)
Return type: number; implicit unit L/kg.

Q. Which Vd reading was recorded for the molecule Nc1nc2c(c(C(F)(F)F)n1)C(=O)N(CC1CCCC(C(F)(F)F)C1)C2 (stereo not shown) ?
A. 4.2

###

# Vd per record follows
Assay method text: Rat pharmacokinetics
Type: in vivo
Assay conditions: male, Hans Wistar, whole blood, 3 mg/kg; rat, IV; read-out: Vdss
Return type: number; implicit unit L/kg.

>>> recorded_measurement("Nc1nc2c(c(C(F)(F)F)n1)C(=O)N(CC1CCCC(C(F)(F)F)C1)C2 (centres unmarked)")
3.2

Q. Which Vd reading was recorded for the compound O=C(NCC1(O)CCCCC1)c1cc(=O)c2cc(O)ccc2o1 ?
A. 2.1

###

# Cmax per record follows
Assay method text: Mouse pharmacokinetics
Assay conditions: female, BALB/C, mouse, whole blood, po, 10 mg/kg

>>> recorded_measurement("Nc1nc2c(c(C(F)(F)F)n1)C(=O)N(CC1CCCC(C(F)(F)F)C1)C2 (centres unmarked) [DDD489]")
"200 ng/mL"

# input for lookup
Q. Which Cmax reading was recorded for the compound O=C(NCC1(O)CCCCC1)c1cc(=O)c2cc(O)ccc2o1 [DDD508] ?
A. 200 ng/mL

###

Assay method text: Dog pharmacokinetics
Type: in vivo
Assay conditions: male, beagle, whole blood; dog PO 10 mg/kg; read-out: F (oral bioavailability)
Endpoint name: bioavailability (%)
Return type: number; implicit unit %.

Q. Which bioavailability reading was recorded for the compound Nc1nc2c(c(C(F)(F)F)n1)C(=O)N(CC1CCCC(C(F)(F)F)C1)C2 (stereo not shown) [DDD489] ?
A. 18

###

Assay method text: Aqueous (kinetic) solubility by UHPLC
Type: physicochemical
Assay conditions: 25 °C, aqueous buffer, kinetic from dmso stock, PBS pH 7.4, UHPLC
solubility at 24 h below 60 µM gives class 0; solubility at 24 h at or above it gives class 1.

Q. Please indicate if the recorded solubility at 24 h for COc1ccc2oc(C(=O)NCC3(O)CCCCC3)cc(=O)c2c1 meets or exceeds 60 µM.
A. class 0

Q. Please indicate if the recorded solubility at 24 h for O=C(NCC1CCCCO1)c1cc(=O)c2ccc(F)c(O)c2o1 (stereo not shown) meets or exceeds 60 µM.
A. class 1

###

# pIC50 per record follows
Study target: CYP450 3A4 (Homo sapiens)
Sequence (P08684 whole entry): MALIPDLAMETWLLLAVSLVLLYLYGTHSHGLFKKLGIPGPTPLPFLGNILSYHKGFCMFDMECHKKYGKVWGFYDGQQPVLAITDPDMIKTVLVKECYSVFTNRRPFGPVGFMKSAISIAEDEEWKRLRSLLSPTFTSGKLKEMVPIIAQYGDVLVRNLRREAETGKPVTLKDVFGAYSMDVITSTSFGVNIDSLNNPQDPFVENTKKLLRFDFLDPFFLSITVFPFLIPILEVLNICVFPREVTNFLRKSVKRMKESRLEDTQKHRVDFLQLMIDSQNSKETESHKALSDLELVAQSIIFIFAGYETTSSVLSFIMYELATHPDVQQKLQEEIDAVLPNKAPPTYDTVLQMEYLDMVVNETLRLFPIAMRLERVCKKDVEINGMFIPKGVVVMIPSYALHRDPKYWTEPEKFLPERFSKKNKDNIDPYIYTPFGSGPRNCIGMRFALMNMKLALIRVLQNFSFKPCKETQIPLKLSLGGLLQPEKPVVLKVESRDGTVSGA
pIC50: −log10 of the molar value.

>>> recorded_measurement("Nc1nc2c(c(C(F)(F)F)n1)C(=O)N(CC1CCCC(C(F)(F)F)C1)C2 (centres unmarked)")
"< 4.00"

# input for lookup
Q. Can you look up pIC50 on CYP450 3A4 (Homo sapiens) for O=C(NCC1(O)CCCCC1)c1cc(=O)c2cc(O)ccc2o1 ?
A. < 4.00

###

Assay method text: Mouse pharmacokinetics
Assay conditions: female, BALB/C, mouse, whole blood, po, 10 mg/kg
Experimental: Uninfected mice were administered a single oral (10 mg/kg) dose of either DDD489 or DDD508 using the same formulation and dose concentration as for the efficacy study. Blood samples were collected at various time points after drug administration (15, 30, 60, 120, 180, 240, and 480 minutes) and analyzed to produce a concentration-time plot of unbound drug concentration (Fig. 3). […] Mouse pharmacokinetics (Dundee) As previously described.(27) […]
Endpoint name: Tmax (min)
Return type: number; implicit unit min.

>>> recorded_measurement("Nc1nc2c(c(C(F)(F)F)n1)C(=O)N(CC1CCCC(C(F)(F)F)C1)C2 (centres unmarked)")
60

Q. Which Tmax reading was recorded for the molecule O=C(NCC1(O)CCCCC1)c1cc(=O)c2cc(O)ccc2o1 ?
A. 15

###

Assay method text: FaSSIF solubility
Type: physicochemical
Assay conditions: Fasted State Simulated Intestinal Fluid
Endpoint name: solubility (µM)
Return type: number; implicit unit µM.

>>> recorded_measurement("Nc1nc2c(c(C(F)(F)F)n1)C(=O)N(CC1CCCC(C(F)(F)F)C1)C2 (centres unmarked)")
48

# input for lookup
Q. Which solubility reading was recorded for the compound O=C(NCC1(O)CCCCC1)c1cc(=O)c2cc(O)ccc2o1 ?
A. 325

###

# chromatographic logD per record follows
Assay method text: CHIlogD
Format: physicochemical
Assay conditions: pH 7.4
Returns: the value as a bare number; no unit string appended.

>>> recorded_measurement("Nc1nc2c(c(C(F)(F)F)n1)C(=O)N(CC1CCCC(C(F)(F)F)C1)C2 (centres unmarked)")
2.8

Q. Which chromatographic logD reading was recorded for the molecule O=C(NCC1(O)CCCCC1)c1cc(=O)c2cc(O)ccc2o1 ?
A. 1

###

Assay method text: Biopharmaceutical Classification System (BCS) categorization
Assay type: physicochemical
Assay conditions: cut-offs solubility 100 μM, permeability 30 nm/s; Table S1 prints 1-4 for I-IV
Procedure: To investigate our key parameters, solubility and permeability, we used the Biopharmaceutical Classification System (BCS)([13]) to categorize our tool compounds in a methodical way. […] (A) Schematic of Biopharmaceutical Classification System (BCS). […] Fecal samples were collected from individual mice (4 animals per treatment group) and analyzed by qPCR to quantify parasite shedding (oocysts/g). […] Mean oocyst shedding was determined for each group of n=4 mice, for all compounds tested. […]
# BCS Class per record follows
Returns: the value as a bare number; no unit string appended.

Example molecules with recorded BCS Class:
>>> recorded_measurement("Nc1cc(F)cc2c(=O)cc(C(=O)NCC3(O)CCCCC3)oc12")
4
>>> recorded_measurement("O=C(NCC1CCCCC1)c1cc(=O)c2cc(F)c(F)c(O)c2o1")
1
>>> recorded_measurement("O=C(NCC1CCCCO1)c1cc(=O)c2ccc(F)c(O)c2o1 (stereo not drawn)")
3
>>> recorded_measurement("Nc1nc2c(c(C(F)(F)F)n1)C(=O)N(CC1CCCC3(CC3)C1)C2 (stereo not drawn)")
2
>>> recorded_measurement("Nc1nc2c(c(C(F)F)n1)C(=O)N(C[C@@H]1CCC[C@H](C(F)(F)F)C1)C2")
2

# input for lookup
Q. Which BCS Class reading was recorded for the molecule O=C(NCC1(F)CCCCC1)c1cc(=O)c2ccc(F)c(O)c2o1 ?
A. 1

###

Assay method text: Dog pharmacokinetics
Format: in vivo
Assay conditions: male, beagle, whole blood; dog PO 10 mg/kg
Endpoint name: Cmax (ng/mL)
Return type: number; implicit unit ng/mL.

Q. Which Cmax reading was recorded for the compound Nc1nc2c(c(C(F)(F)F)n1)C(=O)N(CC1CCCC(C(F)(F)F)C1)C2 (stereo not shown) [DDD489] ?
A. 200

###

Assay method text: PAMPA permeability
Assay type: in vitro ADME
Assay conditions: PAMPA, pH 7.4, pH 7.4
Endpoint name: Papp at 5 h, 10 µM (×10⁻⁶ cm/s)
Return type: number; implicit unit ×10⁻⁶ cm/s.

Example compounds with recorded Papp at 5 h, 10 µM:
>>> recorded_measurement("COc1ccc2oc(C(=O)NCC3(O)CCCCC3)cc(=O)c2c1")
11.5
>>> recorded_measurement("O=C(NCC1CCCCO1)c1cc(=O)c2ccc(F)c(O)c2o1 (stereo not shown)")
1.1
>>> recorded_measurement("Nc1cc(F)cc2c(=O)cc(C(=O)NCC3(O)CCCCC3)oc12")
1.9
>>> recorded_measurement("COc1cc(NS(=O)(=O)CCN2CCCC2)c2oc(C(=O)N[C@@H](C)C3CCCCC3)cc(=O)c2c1")
1.6
>>> recorded_measurement("O=C(NCC1CCCCC1)c1cc(=O)c2cc(F)c(F)c(O)c2o1")
3.2

Q. Which Papp at 5 h, 10 µM reading was recorded for the compound O=C(NCC1(F)CCCCC1)c1cc(=O)c2ccc(F)c(O)c2o1 ?
A. 6.3

Q. Which Papp at 5 h, 10 µM reading was recorded for the compound Nc1nc2c(c(C(F)(F)F)n1)C(=O)N(CC1CCCC(C(F)(F)F)C1)C2 (stereo not shown) ?
A. 17.1

Q. Which Papp at 5 h, 10 µM reading was recorded for the compound O=C(NCC1(O)CCCCC1)c1cc(=O)c2cc(O)ccc2o1 ?
A. 0.69

Q. Which Papp at 5 h, 10 µM reading was recorded for the compound O=C(NCC1CCCCC1)c1cc(=O)c2ccc(F)c(O)c2o1 ?
A. 4.3

Q. Which Papp at 5 h, 10 µM reading was recorded for the compound O=C(NCC1(O)CCCCC1)c1cc(=O)c2ccc(F)c(O)c2o1 ?
A. 0.17
